Give measured TGI for each item. Keep answers brief.
# Tested on: MDA-MB-231 breast
# EXPERIMENT DESCRIPTION: NCI tumour cell line growth inhibition, 48 h
Where a SMILES comes first, the peptide text is derived from it. The star is where a group is joined. Trt = c1ccc(C(c2ccccc2)(c2ccccc2)*)cc1; Cbz = O=C(OCc1ccccc1)*

# annotated cases, reported TGI shown
{"COMPOUND": "CC(C)c1ccc(/C=C2\\CSCC3=C2N=C2SCC(=O)N2C3c2ccc(C(C)C)cc2)cc1 (stereo unspecified)", "SYSTEM UNDER TEST": "MDA-MB-231 breast", "TGI": "> 100 µM"}
{"COMPOUND": "COC(=O)C(CSC(c1ccccc1)(c1ccccc1)c1ccccc1)NC(=O)C(CC(N)=O)NC(=O)OCc1ccccc1 (stereo not drawn) (Cbz-Asn-Cys(Trt)-OMe; configuration not given here)", "SYSTEM UNDER TEST": "MDA-MB-231 breast", "TGI": "10.9 µM"}
{"COMPOUND": "CCOC(=O)C(C/C=C/CO)N(C)C(=O)OC(C)(C)C (stereo unspecified)", "SYSTEM UNDER TEST": "MDA-MB-231 breast", "TGI": "> 100 µM"}

Fill in TGI for each of the 2 compounds listed.
1. Cc1ccc(S(=O)(=O)Nn2c(O)c(C#N)c(-c3ccc([N+](=O)[O-])cc3)c(C#N)c2=O)cc1
2. Cc1csc(-n2c(C)nc3cc(Cl)ccc3c2=O)n1

Result:
["> 100 µM", "> 100 µM"]

Fill in TGI for each of the 3 compounds listed.
1. FC(F)(F)c1ccc2nc(Sc3ccc4ccccc4c3)cnc2c1
2. COc1ccc(C(=O)c2cc3c(N)c(C(=O)Nc4cccc(OC)c4)sc3nc2C)cc1
3. Cc1cc2nc3c4ccc(Br)cc4n(CCN(C)C)c3nc2cc1C

Result:
> 100 µM
> 100 µM
7.45 µM

Fill in TGI for each of the 2 compounds listed.
1. CN(C)CCNC(=O)c1c(O)ccc2c1c1c(n2CCc2ccccc2)C(=O)c2ccccc2C1=O
2. O=C(CCCCCCCCC(=O)N/N=C\c1cc(Cl)ccc1O)N/N=C\c1cc(Cl)ccc1O

Result:
["15 µM", "> 82.6 µM"]

Fill in TGI for each of the 8 compounds listed.
1. Cn1cc(NC(=O)Nc2cc(C(=O)Nc3cc(C(=O)Nc4cc(S(=O)(=O)O)c5cc(S(=O)(=O)O)cc(S(=O)(=O)O)c5c4)n(C)c3)n(C)c2)cc1C(=O)Nc1cc(C(=O)Nc2cc(S(=O)(=O)O)c3cc(S(=O)(=O)O)cc(S(=O)(=O)O)c3c2)n(C)c1
2. Cc1ccc(-c2n[nH]c(=O)c3noc(-c4ccc(C)cc4)c23)cc1
3. O=C(/C=C/c1ccccc1)CCC1C(=O)NC(=S)NC1=O
4. COc1cc(/C=N/NC(=O)c2ccccc2Nc2cccc(C(F)(F)F)c2)cc(OC)c1OC
5. COc1ccc(C2=NC(c3ccc(Cl)cc3)C(c3ccc(Cl)cc3)N2C(=O)N2CCNC(=O)C2)c(OC(C)C)c1 (stereo unspecified)
6. CN1CCN(c2ccc3nc(-c4ccc(OCCCCN5CCN(CCCCN6C(=O)c7cccc8cccc(c78)C6=O)CC5)cc4)[nH]c3c2)CC1
7. COc1cc2c3c(cc(Cl)nc3c1OC)C(O)(CC(=O)c1ccccc1)C(=O)N2 (stereo unspecified)
8. O=C(N/N=C\c1ccc([N+](=O)[O-])s1)c1ccncc1

Result:
1. > 100 µM
2. 39.8 µM
3. > 100 µM
4. 20.5 µM
5. 3.89 µM
6. > 100 µM
7. 31.2 µM
8. > 89.1 µM

Fill in TGI for each of the 3 compounds listed.
1. CN(C(=O)CNC(=O)/C=C/c1cccc(Cl)c1)C1CCS(=O)(=O)CC1
2. COC(=O)c1cc(/C=C\c2cc(OC)ccc2OC)ccc1OC
3. Cc1c(Cl)cccc1NC(=O)c1sc2nc3c(cc2c1N)CCCC3

Result:
1: > 100 µM; 2: > 100 µM; 3: > 100 µM
